Measured growth accompanies every entry in the list below.
- Tested on: MCF7 breast
- test_name: NCI-60 one-dose screen, 48 h (100 = growth as untreated, 0 = no growth, -100 = all killed)
- test_conditions: 10 µM unless noted
This is part of a sample that, as a whole, favours compounds with a hit. Of some 83,000 tested, about 20% had one in any assay.
# value in %; strip the unit string

# compound, assayed_system, growth / %
data = [
    ("COc1cc(C2C3=C(COC3=O)N(CCO)c3cc4c(cc32)OCO4)cc(OC)c1OC (stereo not drawn)", "MCF7 breast", -6.88),
]

Let us move to another entry and its growth.
According to the records, this compound COc1ccc(C(=O)c2cc(C)c(OC)c(C)c2)c(OC)c1N(C(=O)CCl)C(=O)CCl displays growth of 14

----------
- System: PC-3 prostate
- test_name: NCI-60 one-dose screen, 48 h (100 = growth as untreated, 0 = no growth, -100 = all killed)
- test_conditions: 10 µM unless noted
The panel holds about 83,000 compounds, 20% with a hit somewhere; the sample as a whole holds those more often. Calls of active or inactive are those of the source. Rule for the calls: active = growth percent below 10; inactive = the rest.
Measured growth accompanies every entry in the list below.

# chemical_smiles, growth
data = [
    ("S=c1cc(S)c2cc(Br)ccc2[nH]1", "78.8% (inactive)"),
]

According to the records, this compound N#Cc1c(NCc2ccccc2I)sc2c1CCCCC2 displays growth of 98.8% (inactive)

According to the records, this compound Cc1cc2nc3c4cc([N+](=O)[O-])ccc4n(CCN(C)C)c3nc2cc1C displays growth of -0.344% (active)

According to the records, this compound O=C1NN(C(=O)c2ccccc2)C(c2ccc(Cl)c(Cl)c2)=C/C1=C\c1ccc([N+](=O)[O-])cc1 displays growth of 46.7% (inactive)

According to the records, this compound COCc1cnccc1NC1CCCCCC1 displays growth of 98.1% (inactive)

According to the records, this compound C[C@H]1[C@H](C)CC[C@]2(C(=O)Nc3ccc4ncccc4c3)CC[C@]3(C)C(=CC[C@@H]4[C@@]5(C)CCCNC(C)(C)[C@@H]5CC[C@]43C)[C@H]12 displays growth of -4.73% (active)

According to the records, this compound COc1ccc(NC(N)=NCCCOc2ccc(F)cc2)cc1 displays growth of 66.8% (inactive)

According to the records, this compound CC(=O)Nc1cccc(-c2ccc3c(c2)NC(=O)/C3=C\c2ccc[nH]2)c1 displays growth of 63.8% (inactive)

According to the records, this compound CCCCCC(=O)Oc1ccc(/C(=C(\C)c2ccccc2)c2ccc(OCCN3CCCCC3)cc2)cc1 displays growth of 72.2% (inactive)

According to the records, this compound O=C1Nc2cc(-c3ccc(NC(=O)C4CC4)cc3)ccc2/C1=C/c1ccc[nH]1 displays growth of 104% (inactive)

According to the records, this compound N=C1C(c2nc3ccccc3s2)=C(O)CN1c1cc(Cl)cc(Cl)c1 displays growth of 26.1% (inactive)

According to the records, this compound O=C(NNc1nc2c(F)cccc2n2cccc12)c1cnccn1 displays growth of 36.2% (inactive)

According to the records, this compound COc1cccc2c1c1nc3cc(C)c(C)cc3nc1n2CCN(C)C displays growth of 18.3% (inactive)

According to the records, this compound CC(=O)OC[C@]12CC[C@@H](C(=O)CBr)[C@@H]1[C@H]1CC[C@@H]3[C@@]4(C)CC[C@H](OC(C)=O)C(C)(C)[C@@H]4CC[C@@]3(C)[C@]1(C)CC2 displays growth of 75.8% (inactive)

According to the records, this compound O=C1c2ccc3c4c(ccc(c24)C(=O)N1CCCNCc1ccccc1Cl)C(=O)N(CCCNCc1ccccc1Cl)C3=O displays growth of -37.7% (active)

According to the records, this compound O=C(O)c1ccc2c(c1)C(=O)N(Cc1ccccc1)C2=O displays growth of 96.2% (inactive)

----------
- System: NCI-H23 lung
- test_name: NCI-60 one-dose screen, 48 h
- test_conditions: 10 µM unless noted
- Description: Growth inhibition of the NCI-H23 human Non-Small Cell Lung tumor cell line is measured as a screen for anti-cancer activity. Cells are grown in 96 well plates and exposed to the test compound for 48 hours. Compounds are tested at a single concentration, which is 10^-5 M for most compounds. The reported endpoint is percent growth (GI% or GIPRCNT), where numbers from 0 - 100% represent growth inhibition, and numbers from -100% - 0 represent cell death. […]
About 83,000 compounds went through this panel and 20% of them were active in at least one assay; those are over-represented in the sample as a whole. The source made the active and inactive calls. How the source made its calls: active means growth percent below 10; inactive means the rest.
Your reply should match one of these outcome classes. active, inactive

Consider the worked cases shown below.
# molecule, label_value
records = [
    ("Cc1ccccc1NS(=O)(=O)c1cccc(C(=O)Nc2ccc(Br)cc2)c1", "inactive"),
    ("O=C1/C=C/[C@@H](O)[C@@H]2C[C@@H](O)C[C@H]2/C=C/CCC[C@H](CCc2cccc3ccccc23)O1", "active"),
    ("CC(=O)Nc1ccc(-c2ccc3c(c2)NC(=O)/C3=C\\c2ccc[nH]2)cc1", "inactive"),
    ("CC(C)(C)c1cc(/C=N/NC(=O)c2ccccc2NC(=O)c2cccs2)c(O)c(C(C)(C)C)c1", "inactive"),
    ("COc1cc2c(cc1OC)C(=O)/C(=C/c1cc(C)c(O)c(C)c1)S2", "inactive"),
]

Q) Dear colleague, could you share the recorded outcome for CCCOc1ccc(/C=N/Nc2cc(C)nc3ccc(Cl)cc23)cc1 when you have a moment?
A) inactive

Q) Dear colleague, could you share the recorded outcome for COc1ccc(NC(=O)c2cc(NCc3cc(O)ccc3O)ccc2O)cc1 when you have a moment?
A) inactive

Q) Dear colleague, could you share the recorded outcome for Oc1c(Cl)cc(Cl)c(Cl)c1CNCCNCc1c(O)c(Cl)cc(Cl)c1Cl when you have a moment?
A) inactive

Q) Dear colleague, could you share the recorded outcome for O=C(CCN1CCCC1)Nc1ccc2c(NCCCCc3ccccc3)c3ccccc3nc2c1 when you have a moment?
A) active

Q) Dear colleague, could you share the recorded outcome for COc1cc2nc(-c3ccc(C(F)(F)F)cc3)cc(OCCCN3CCCC3)c2cc1OC when you have a moment?
A) inactive

Q) Dear colleague, could you share the recorded outcome for O=S(=O)(NCCCNc1nccc(-c2c(-c3cccc(O)c3)nc3occn23)n1)c1ccc(Cl)cc1 when you have a moment?
A) inactive

Q) Dear colleague, could you share the recorded outcome for COc1ccc(C(=O)CC#N)cc1 when you have a moment?
A) inactive

Q) Dear colleague, could you share the recorded outcome for Cc1cc(C(=O)/C=C/c2ccc[nH]2)ccc1-n1ccc(C(F)(F)F)n1 when you have a moment?
A) inactive

Q) Dear colleague, could you share the recorded outcome for CC(c1ccccc1)C(C(=O)c1ccccc1)c1ccccc1 (stereo not given) when you have a moment?
A) inactive

Q) Dear colleague, could you share the recorded outcome for C=C1C(=O)O[C@H]2[C@H]1CC/C(COC(=O)NCc1c[nH]c3ccc(Br)cc13)=C\CC[C@@]1(C)O[C@@H]21 when you have a moment?
A) inactive

Q) Dear colleague, could you share the recorded outcome for O=C(NO)c1ccc(-n2nc(-c3ccccc3)c3ccccc32)cc1 when you have a moment?
A) inactive

Q) Dear colleague, could you share the recorded outcome for C#CCNC(=O)[C@H](Cc1ccccc1)NC(=O)[C@]12CC[C@@H](C(=C)C)[C@@H]1[C@H]1CC[C@@H]3[C@@]4(C)CCC(=O)C(C)(C)[C@@H]4CC[C@@]3(C)[C@]1(C)CC2 when you have a moment?
A) inactive

Q) Dear colleague, could you share the recorded outcome for O=C(CCN1CCCC1)Nc1ccc2c(Nc3ccc(Br)cc3)c3ccccc3nc2c1 when you have a moment?
A) inactive

Q) Dear colleague, could you share the recorded outcome for [O-][n+]1c(Cl)cc(Cl)c2ccccc21 when you have a moment?
A) inactive

Q) Dear colleague, could you share the recorded outcome for Cc1c2cc[nH]c(=O)c2c(C)c2c1[nH]c1cc(OCCN3CCN(C)CC3)ccc12 when you have a moment?
A) active

----------
- Tested on: SK-MEL-2 melanoma
- test_name: NCI-60 one-dose screen, 48 h (100 = growth as untreated, 0 = no growth, -100 = all killed)
- test_conditions: 10 µM unless noted
The panel holds about 83,000 compounds, 20% with a hit somewhere; the sample as a whole holds those more often.
Binary call on growth with cut-off 80%: strictly below means Y, and equality or higher means N.

# compound, label_value
data = [
    ("COc1cccc(-c2nc3occn3c2-c2ccnc(NCCNS(=O)(=O)c3ccc(C(F)(F)F)cc3)n2)c1", "N"),
    ("C=C(C)[C@@H]1CC[C@]2(CN)CC[C@]3(C)[C@H](CC[C@@H]4[C@@]5(C)CCCNC(C)(C)[C@@H]5CC[C@]43C)[C@@H]12", "Y"),
]

Q) Quick check: growth of O=S(=O)(NCCNc1nccc(-c2c(-c3cccc(O)c3)nc3occn23)n1)c1ccccc1 under 80%?
A) Y

Q) Quick check: growth of O=C(NCCNc1nccc(-c2c(-c3cccc(F)c3)nc3sccn23)n1)c1ccc(Cl)cc1 under 80%?
A) Y
